Test system: MOLT-4 leukemia
test-protocol: NCI-60 one-dose screen, 48 h (100 = growth as untreated, 0 = no growth, -100 = all killed)
conditions-used: 10 µM
The panel holds about 83,000 compounds, 20% with a hit somewhere; the sample as a whole holds those more often.
Each entry below lists one item and its recorded growth value.

>  <compound>
CC12CCC(=O)C=C1CCC1C2CCC2(C)C(C(=O)COC(=O)Cc3ccc(N(CCCl)CCCl)cc3)CCC12 (stereo unspecified)

>  <growth [%]>
49.5

$$$$
>  <compound>
[O]=[Sn]([CH]1CCCCC1)[CH]1CCCCC1

>  <growth [%]>
6.59

$$$$
>  <compound>
COC(=O)C(=[N+]=[N-])C(=O)OC

>  <growth [%]>
105

$$$$
>  <compound>
C=CC(O)CN1CC1CC (stereo unspecified)

>  <growth [%]>
96.2

$$$$
>  <compound>
COc1cc(C2CC(=O)Nc3nc(N)[se]c32)c(OC)c2c1OCO2 (stereo unspecified)

>  <growth [%]>
117

$$$$
>  <compound>
CC(=O)Nc1ccc(C=C2C(=O)NC(=O)NC2=O)cc1

>  <growth [%]>
88

$$$$
>  <compound>
NC(=O)SCC(=O)Nc1ccc([As](=O)(O)O)cc1

>  <growth [%]>
86.1

$$$$
>  <compound>
CC12CCC3C(CC=C4CC(O)CCC43C)C1C/C(=C\N1CCOCC1)C2=O (stereo unspecified)

>  <growth [%]>
106

$$$$
>  <compound>
[Br][Pb]([c]1ccccc1)([c]1ccccc1)[c]1ccccc1

>  <growth [%]>
-24.4

$$$$
>  <compound>
CC(=O)C1CCC2C3CC=C4CC(OC(=O)Cc5ccc(N(CCCl)CCCl)cc5)CCC4(C)C3CCC12C (stereo unspecified)

>  <growth [%]>
73

$$$$
>  <compound>
CSc1ccccc1NP1(=O)OCC(C)([N+](=O)[O-])CO1 (stereo unspecified)

>  <growth [%]>
94.4

$$$$
